// provenance: BigSolDB 2.1

# assay-context: in isopropyl acetate, 323.15 K
quantity-name: solubility (mole fraction)
The answer should be a number; do not append a unit.

Need solubility (mole fraction), item `CN1CCN(C(=O)O[C@H]2c3nccnc3C(=O)N2c2ccc(Cl)cn2)CC1`
0.00203

* * *

# assay-context: in ethanol, 308.15 K
quantity-name: solubility (mole fraction)

Need solubility (mole fraction), item `CN1CCN(C(=O)O[C@H]2c3nccnc3C(=O)N2c2ccc(Cl)cn2)CC1`
0.000526

* * *

# assay-context: in ethanol, 293.15 K
quantity-name: solubility (mole fraction)
The answer should be a number; do not append a unit.

Need solubility (mole fraction), item `CN1CCN(C(=O)O[C@H]2c3nccnc3C(=O)N2c2ccc(Cl)cn2)CC1`
0.000282
